Test system: TAB165
Experiment: qHTS profiling for inhibitors of Plasmodium falciparum proliferation (AID 504749); note: nearly all actives have a fitted effect of over 60% in size
Conditions: P. falciparum in erythrocytes, SYBR Green DNA, 72 h; series mostly up to 28.7 µM
Results filed as inconclusive are left out. Activity calls are given as the source filed them. Calls come from the whole dose curve; as a rule, active = well fitted inhibition curve with a large enough effect; inconclusive = small, poorly fitted or top-dose-only effect; inactive = flat fitted curve, though single readings scatter.
Tick one outcome: active, inactive

compound: CO/N=C(/C(=O)N[C@@H]1C(=O)N2C(C(=O)O)=C(CSc3nnnn3C)CS[C@H]12)c1csc(N)n1
assigned.category: inactive

Q: Per the records of this test, what outcome belongs to C=C[C@@]1(C)C[C@H](OC(=O)CSC(C)(C)CNC(=O)[C@@H](N)C(C)C)[C@@]2(C)C(C)CC[C@@]3(CCC(=O)[C@@H]32)[C@H](C)[C@H]1O (some centres not stated) ?
Ans: active

Q: Per the records of this test, what outcome belongs to `CCN(CC)C(=O)[C@@]1(c2ccccc2)C[C@@H]1CN` ?
Ans: inactive

Q: Per the records of this test, what outcome belongs to `CCOc1ccccc1O[C@@H](c1ccccc1)[C@@H]1CNCCO1` ?
Ans: active

Q: Per the records of this test, what outcome belongs to OCC1O[C@H](O[C@H]2C(O)C(O)C(O)O[C@@H]2CO)C(O)C(O)C1O (some centres not stated) ?
Ans: inactive

Q: Per the records of this test, what outcome belongs to `C/C=C\C[C@H](C)[C@H](O)[C@H]1C(=O)N[C@@H](CC)C(=O)N(C)CC(=O)N(C)[C@@H](CC(C)C)C(=O)N[C@@H](C(C)C)C(=O)N(C)[C@@H](CC(C)C)C(=O)N[C@@H](C)C(=O)N[C@@H](C)C(=O)N(C)[C@@H](CC(C)C)C(=O)N(C)[C@@H](CC(C)C)C(=O)N(C)[C@@H](C(C)C)C(=O)N1C` ?
Ans: active

Q: Per the records of this test, what outcome belongs to NC(=O)c1ncn(C2OC(CO)C(O)C2O)c1N (configuration not stated) ?
Ans: inactive

Q: Per the records of this test, what outcome belongs to C=CCn1c(=O)n(C2OC(CO)C(O)C2O)c2nc(N)[nH]c(=O)c21 (configuration not stated) ?
Ans: inactive

Q: Per the records of this test, what outcome belongs to `Cc1ccc(Nc2ncccc2C(=O)O)cc1C` ?
Ans: inactive

Q: Per the records of this test, what outcome belongs to CCC(C(=O)O)C1OC(C(C)C(O)C(C)C(=O)C(CC)C2OC3(C=CC(O)C4(CCC(C)(C5CCC(O)(CC)C(C)O5)O4)O3)C(C)CC2C)C(C)CC1C (configuration not stated) ?
Ans: active

Q: Per the records of this test, what outcome belongs to `C=C1[C@@H]2CC[C@H](C2)C1(C)C` ?
Ans: inactive

Q: Per the records of this test, what outcome belongs to OCC(CO)NC1C[C@](O)(CO)[C@@H](O)[C@H](O)[C@H]1O (some centres not stated) ?
Ans: inactive

Q: Per the records of this test, what outcome belongs to OCC1O[C@H](Oc2ccc(O)cc2)C(O)C(O)C1O (some centres not stated) ?
Ans: inactive

Q: Per the records of this test, what outcome belongs to C[C@H]1OC(OC2C(O)[C@@H](O)C(OC3C(O)[C@@H](O)C(O)O[C@@H]3CO)O[C@@H]2CO)[C@H](O)C(O)C1N[C@H]1C=C(CO)[C@@H](O)[C@H](O)C1O (some centres not stated) ?
Ans: inactive

Q: Per the records of this test, what outcome belongs to NC(C(=O)O)c1ccc(O)cc1 (configuration not stated) ?
Ans: inactive

Q: Per the records of this test, what outcome belongs to `Cc1ccccc1N1C(=O)c2cc(N)ccc2N/C1=C\F` ?
Ans: inactive

Q: Per the records of this test, what outcome belongs to CCCCCCCCCCCCCCCC(=O)OCC(COP(=O)(O)OCC[N+](C)(C)C)OC(=O)CCCCCCCCCCCCCCC (configuration not stated) ?
Ans: inactive

---

Please respond with reported activity change, negative = inhibition for every item in the list.
Test: AP1 Signaling Pathway (AID 357);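 note: ME-180 reporter cells stimulated with EGF at its EC50 level; % is set by controls: 0 for no effect and ±100 for the full control effect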
Details: ME-180 AP-1-bla reporter, EGF-induced, beta-lactamase ratio, 5 h; at 17.2 µM (top of the series) unless noted
Records with an inconclusive call do not appear.
Numbers only, in %.

These solved cases illustrate the format of a correct answer.
compound: COc1cc(-c2nn3c(C4CCCCC4)nnc3s2)cc(OC)c1OC
unit.tag: %
activity change, negative = inhibition: -16.1
//
compound: CCC(c1c(C)n(C)n(-c2ccccc2)c1=O)c1c(C)n(C)n(-c2ccccc2)c1=O
unit.tag: %
activity change, negative = inhibition: 6.29
//
compound: Cc1nc2n[nH]c(N)c2c2c1COC(C)(C)C2
unit.tag: %
activity change, negative = inhibition: 3.75
//
compound: COC(=O)CC1=NC(=O)CS1
unit.tag: %
activity change, negative = inhibition: 17.8
//
compound: Cn1c(SCC(=O)N2CCOCC2)nnc1-c1ccc(Cl)cc1Cl
unit.tag: %
activity change, negative = inhibition: -13.7

State recorded activity change, negative = inhibition for all listed compounds.
1. C=CCOC(=O)C1=C(C)NC(SCC(=O)Nc2ccc(C)c(Cl)c2)=C(C#N)C1c1ccco1 (stereo unspecified)
2. C=CCOc1nc2c(c(=O)n(C)c(=O)n2C)n1Cc1c(Cl)cccc1Cl

Ans:
1: -4.79; 2: 0.413

---

Please respond with reported activity, negative = inhibition for every item in the list.
Experiment: Stat Signaling Pathway (AID 446);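 note: ME-180 cervical cancer cells given 40 pM IL-6 alongside compound; SIE-controlled beta-lactamase reporter measured as 460/530 nm FRET emission ratio; % is set by controls: 0 for no effect and ±100 for the full control effect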
Details: ME-180 SIE beta-lactamase reporter, IL-6 stimulated, 5 h; at 17.2 µM (top of the series) unless noted
Inconclusive results are not listed. Active and inactive are the calls of the source. Calls come from the whole dose curve; as a rule, active = well fitted curve in either direction with a large enough effect (not every such curve was filed as active); inconclusive = small, poorly fitted or top-dose-only effect, or another doubt; inactive = flat fitted curve, though single readings scatter.

These solved cases illustrate the format of a correct answer.
compound: CCOc1ccc(C2C(C#N)=C(N)SC(N)=C2C#N)cc1OC
measured.value: -5.25% (inactive)
//
compound: CCCN1C[C@@H](CSC)C[C@H]2c3cccc4[nH]cc(c34)C[C@@H]21
measured.value: -10.6% [at 38 µM] (inactive)
//
compound: COCCNc1nc2c(c(=O)n(Cc3ccc(OC)cc3)c(=O)n2C)n1C
measured.value: -12.3% (inactive)
//
compound: OCCOCCNc1ncnc2c1cnn2-c1ccc(Cl)cc1
measured.value: 4.43% (inactive)
//
compound: Cc1c(C=NCCOCc2ccccc2)cnn1C
measured.value: 12.4% (inactive)

State recorded activity, negative = inhibition for all listed compounds.
1. CCOC(=O)C1CCN(C(C)=C2C(=O)c3ccccc3C2=O)CC1
2. COC(=O)c1n[nH]c2ccccc12
3. CN(CCOC(=O)c1ccc2c(c1)OCCO2)Cc1ccccc1
4. c1ccc(-c2nnc3sc(Cc4cccs4)nn23)cc1
5. COc1ccc(C(=O)c2oc3nc(C)cc(C)c3c2N)cc1

Ans:
1: 1.52% (inactive); 2: -6.08% (inactive); 3: -4.47% (inactive); 4: 16.7% (inactive); 5: -8.18% (inactive)

State recorded activity, negative = inhibition for all listed compounds.
1. O=C(O)CC(SCc1ccc(C(=O)O)o1)C(=O)O (stereo unspecified)
2. CCOc1ccc(/C(O)=C2/C(=O)C(=O)N(CCN(C)C)C2c2ccccc2)cc1Cl (stereo unspecified)
3. Cc1onc(-c2ccccc2Cl)c1C(=O)N1CCN(c2nc3ccccc3s2)CC1

Ans:
1. 0.837% (inactive)
2. 7.84% (inactive)
3. -3.09% (inactive)

---

Experiment: Stat Signaling Pathway (AID 446);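 note: ME-180 cervical cancer cells given 40 pM IL-6 alongside compound; SIE-controlled beta-lactamase reporter measured as 460/530 nm FRET emission ratio; % is set by controls: 0 for no effect and ±100 for the full control effect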
Conditions: ME-180 (cervical carcinoma) SIE beta-lactamase reporter, IL-6 stimulated, 5 h; at 17.2 µM (top of the series) unless noted
Records with an inconclusive call do not appear.
Please respond with reported activity, negative = inhibition for every item in the list.
One number for each entry, in %.

These solved cases illustrate the format of a correct answer.
compound: CN1C2C=C3C(C#N)=C(N)C(C#N)(C#N)[C@@H](c4ccc(Cl)cc4)[C@@H]3C1CC2 (stereo partly specified)
unit.tag: %
activity, negative = inhibition: 5.5
//
compound: COc1ccc(C(=O)N2CCCC(c3ccccc3)C2)cc1 (stereo unspecified)
unit.tag: %
activity, negative = inhibition: 2.57
//
compound: COC(=O)c1c(NC(=O)c2nn(C)cc2Cl)sc2c1CCCC2
unit.tag: %
activity, negative = inhibition: -10.7
//
compound: Clc1ccc(-n2ncc3c(NCCCn4ccnc4)ncnc32)cc1
unit.tag: %
activity, negative = inhibition: -0.823
//
compound: CCOC(=O)C1=C(CSc2nc3c(cc2C#N)CCC3)OC(N)=C(C#N)C1c1ccccc1 (stereo unspecified)
unit.tag: %
activity, negative = inhibition: -16.4

# input for lookup
Q: Indicate its recorded activity, negative = inhibition; the compound in question is `Cc1c(OCc2ccccc2)c(=O)ccn1Cc1ccccc1`
Ans: 1.99

---

Tested on: CP192
Test: qHTS profiling for inhibitors of Plasmodium falciparum proliferation (AID 504749); note: nearly all actives have a fitted effect of over 60% in size
Settings: P. falciparum in erythrocytes, SYBR Green DNA, 72 h; series mostly up to 28.7 µM
Results filed as inconclusive are left out. The source made the active and inactive calls. The call rests on the fitted dose curve; in most records, active means well fitted inhibition curve with a large enough effect; inconclusive means small, poorly fitted or top-dose-only effect; inactive means flat fitted curve, though single readings scatter.
Tick one outcome: 1 for active, -1 for inactive

Completed entries (count: 5):
compound: C=C(NCc1ccccc1)c1ccccc1O
system.name: CP192
assigned.category: -1

compound: CC(=O)C1(O)Cc2c(O)c3c(c(O)c2C(OC2CC(N)C(O)C(C)O2)C1)C(=O)c1c(O)cccc1C3=O (stereo not drawn)
system.name: CP192
assigned.category: 1

compound: CO/N=C(/C(=O)N[C@@H]1C(=O)N2C(C(=O)O)=C(CSc3cnns3)CS[C@H]12)c1csc(N)n1
system.name: CP192
assigned.category: -1

compound: C[C@@H](O)[C@@H]1C(=O)N2C(C(=O)O)=C([C@H]3CCCO3)S[C@H]12
system.name: CP192
assigned.category: -1

compound: C#C[C@]1(O)CC[C@H]2[C@H]3[C@H](CC[C@@]21C)C1=C(CC(=O)CC1)C[C@@H]3C
system.name: CP192
assigned.category: -1

Q: Per the records of this test, what outcome belongs to CC1CCC(O)C/C1=C\C=C1/CCCC2(C)C1CCC2C(C)/C=C/C(C)C(C)C (stereo not drawn) ?
Ans: -1

Q: Per the records of this test, what outcome belongs to `COc1cc([C@H]2c3cc4c(cc3[C@@H](O[C@H]3O[C@H]5CO[C@@H](C)O[C@H]5[C@@H](O)[C@@H]3O)[C@@H]3COC(=O)[C@H]23)OCO4)cc(OC)c1O` ?
Ans: -1

Q: Per the records of this test, what outcome belongs to `CNC1=CN(O)C(c2ccccc2)=c2cc(Cl)ccc2=N1` ?
Ans: 1

Q: Per the records of this test, what outcome belongs to Cc1ccc(/C=C2/C(=O)C3(C)CCC2C3(C)C)cc1 (stereo not drawn) ?
Ans: -1

Q: Per the records of this test, what outcome belongs to CC(=O)OCC(=O)[C@@]1(O)CCC2C3CCC4=CC(=O)C=CC4(C)C3C(O)C[C@]21C (stereo partly drawn) ?
Ans: -1

Q: Per the records of this test, what outcome belongs to CC[C@@H](C)C(N)C(=O)O (stereo partly drawn) ?
Ans: -1
